# Tested on: SF-295 CNS
# measurement description: NCI-60 one-dose screen, 48 h (100 = growth as untreated, 0 = no growth, -100 = all killed)
# assay context: 10 µM unless noted
About 83,000 compounds went through this panel and 20% of them were active in at least one assay; those are over-represented in the sample as a whole.
recorded metric: growth (%)
# value in %; strip the unit string

COC(=O)c1ccc(NC2=C(Cl)C(=O)C(C)=C(C)C2=O)cc1 36.6
CS(=O)(=O)c1ccc(/C(=N/N=C(N)N)c2ccc(Cl)cc2)cc1 95.4
N#C/C(=C\c1ccc(-c2ccc(Cl)cc2)o1)C(=O)Nc1ncc(Cc2ccc(Br)cc2)s1 -2.23

*Q* Please report the measured growth for "CCC(=C(c1ccc(OCCN2CCCCCC2)cc1)c1ccc(OCCN2CCCCCC2)cc1)c1ccc(Cl)cc1"
*A* -77.3

*Q* Please report the measured growth for "CCOC(=O)c1ccc(NC2=C(Cl)C(=O)c3nc(C)ccc3C2=O)cc1"
*A* 65

*Q* Please report the measured growth for "Cc1ccc(C(=O)CSc2nnc(-c3ccc(-c4ccc(Cl)cc4)nc3C)o2)cc1"
*A* 92.5

*Q* Please report the measured growth for "CC(C)(C)OC(=O)NCc1ccc(CNc2c([N+](=O)[O-])cnc3ccccc23)cc1"
*A* 33.4

*Q* Please report the measured growth for "O=C1/C(=C/C=C/c2ccco2)SC(=S)N1Cc1ccccc1"
*A* 97

###

# Tested on: HCT-116 colon
# measurement description: NCI-60 one-dose screen, 48 h (100 = growth as untreated, 0 = no growth, -100 = all killed)
# assay context: 10 µM unless noted
This is part of a sample that, as a whole, favours compounds with a hit. Of some 83,000 tested, about 20% had one in any assay.
recorded metric: growth (%)
# value in %; strip the unit string

compound	recorded metric	numeric readout
O=C(CSc1nc2ccccc2c(=O)n1-c1ccc(Cl)cc1)N/N=C/c1ccc(Oc2ccc(Cl)cc2)cc1	growth	-67.8
O=C(N/N=C/c1cc2ccccc2nc1Cl)c1cc(-c2nc3ccccc3[nH]2)nc2ccccc12	growth	98.8
O=C(CCCCCCNC(=O)C(O)(O)C(F)(F)F)Nc1ncc(-c2ccc(Br)cc2)s1	growth	-26.3

*Q* Please report the measured growth for "C#C[C@]1(O)CC[C@H]2[C@@H]3CC=C4c5sc(Nc6ccc(C)cn6)nc5CC[C@]4(C)[C@H]3CC[C@@]21C"
*A* 5.1

*Q* Please report the measured growth for "O=C1[C@H]2Cc3c([nH]c4ccccc34)[C@H](c3ccc(Br)cc3)N2C(=O)CN1C1CCN(CC2CCCCC2)CC1"
*A* 18

*Q* Please report the measured growth for "Cc1ccc(NC(=O)Nc2nc3ccc([N+](=O)[O-])cc3s2)cc1"
*A* 1.1

*Q* Please report the measured growth for "COc1ccc(-c2cc(-c3ccc(N(C)C)cc3)n3c(n2)nc2ccccc23)cc1"
*A* 15.8

###

# Test system: OVCAR-5 ovarian
# measurement description: NCI-60 one-dose screen, 48 h (100 = growth as untreated, 0 = no growth, -100 = all killed)
# assay context: 10 µM unless noted
Compounds without any hit were thinned out: in the full panel of roughly 83,000, 20% have a hit.
The threshold is inclusive: growth of exactly 80% counts as satisfied; values below receive not satisfied.

# example entries with known answers
molecule	experimental target	qualitative label
CN(C)S(=O)(=O)c1ccc(-c2nc(C(Cl)Cl)nc3cc(-c4ccc(F)cc4)nn23)cc1	OVCAR-5 ovarian	not satisfied
COc1cc(-c2nc(-c3ccccc3)[nH]c2-c2ccnc(NCCCNS(=O)(=O)c3ccc(C)cc3)n2)ccc1F	OVCAR-5 ovarian	satisfied
Cn1cc(-c2nn3cc(-c4ccncc4)nc3s2)c2cc(F)ccc21	OVCAR-5 ovarian	satisfied
NS(=O)(=O)c1ccc(Nc2nc(N/N=C/C=C/c3ccccc3)nc(Nc3ccccc3)n2)cc1	OVCAR-5 ovarian	satisfied
NC1=NC2(CCCC2)N(c2ccc(S(=O)(=O)Nc3nccs3)cc2)C(N)=N1	OVCAR-5 ovarian	satisfied

*Q* Tell me whether growth is at least 80% here: "O=C(CCCCCCNC(=O)c1csc(Br)n1)NO"
*A* not satisfied

*Q* Tell me whether growth is at least 80% here: "NCCNC(=O)c1cccc(COc2ccccc2NC(=O)c2cc(Cl)c(Cl)[nH]2)c1"
*A* satisfied

*Q* Tell me whether growth is at least 80% here: "COc1cc2cc(Oc3ccc(NC(=O)Nc4ccc(F)c(C(F)(F)F)c4)cc3)c(C)nc2cc1OCCN(C)C"
*A* satisfied

*Q* Tell me whether growth is at least 80% here: "CCOC(=O)c1ccccc1NC1=C(Cl)C(=O)c2nc(C)ccc2C1=O"
*A* satisfied

*Q* Tell me whether growth is at least 80% here: "CC(C)Sc1nc(-c2ccccc2)c(C#N)c(N2CCOCC2)n1"
*A* not satisfied

*Q* Tell me whether growth is at least 80% here: "CC(C)NC(=O)c1cc(-c2ccc(NC(=O)Nc3ccc(F)c(C(F)(F)F)c3)cc2)nc2cccnc12"
*A* satisfied
